# assay: Pharmacokinetic study of RPDQ in rats after intragastric and intravenous administration (UPLC-MS/MS of plasma)
# Type: in vivo, Wistar rats
# setup_conditions: both sexes, Wistar, rat, plasma, iv; rats, 0.3 mg/kg i.v.; read-out: Vz
reported_property: Vd (L/kg)
Your answer is read as L/kg, so omit the unit and give the number.

Measured Vd, CC(C)(O)[C@@H]1CC[C@@](C)([C@H]2CC[C@]3(C)[C@@H]2[C@H](O[C@@H]2O[C@H](CO)[C@@H](O)[C@H]2O)C[C@@H]2[C@@]4(C)CC[C@H](O)C(C)(C)[C@@H]4CC[C@]23C)O1 [RPDQ] : 11.5

---

# assay: Pharmacokinetic study of RPDQ in rats after intragastric and intravenous administration (UPLC-MS/MS of plasma)
# Assay type: in vivo, Wistar rats
# setup_conditions: both sexes, Wistar, rat, plasma, po; rats, 24 mg/kg intragastric
reported_property: half-life (h)
Please state the figure in h; there is no need to write the unit.

Lab note: CC(C)(O)[C@@H]1CC[C@@](C)([C@H]2CC[C@]3(C)[C@@H]2[C@H](O[C@@H]2O[C@H](CO)[C@@H](O)[C@H]2O)C[C@@H]2[C@@]4(C)CC[C@H](O)C(C)(C)[C@@H]4CC[C@]23C)O1 [RPDQ] gave half-life of 13.7

---

# assay: Pharmacokinetic study of RPDQ in rats after intragastric and intravenous administration (UPLC-MS/MS of plasma)
# Type: in vivo, Wistar rats
# setup_conditions: both sexes, Wistar, rat, plasma, po; rats, 12 mg/kg intragastric vs 0.3 mg/kg i.v.; read-out: F (absolute bioavailability)
reported_property: bioavailability (%)
State just the number; it will be interpreted in %.

// recorded bioavailability for CC(C)(O)[C@@H]1CC[C@@](C)([C@H]2CC[C@]3(C)[C@@H]2[C@H](O[C@@H]2O[C@H](CO)[C@@H](O)[C@H]2O)C[C@@H]2[C@@]4(C)CC[C@H](O)C(C)(C)[C@@H]4CC[C@]23C)O1 : 5.15

---

# assay: Pharmacokinetic study of RPDQ in rats after intragastric and intravenous administration (UPLC-MS/MS of plasma)
# Format: in vivo, Wistar rats
# setup_conditions: both sexes, Wistar, rat, plasma, iv; rats, 0.3 mg/kg i.v.; read-out: AUC(0–60)
reported_property: AUC(0-t)

Field AUC(0-t) (entry CC(C)(O)[C@@H]1CC[C@@](C)([C@H]2CC[C@]3(C)[C@@H]2[C@H](O[C@@H]2O[C@H](CO)[C@@H](O)[C@H]2O)C[C@@H]2[C@@]4(C)CC[C@H](O)C(C)(C)[C@@H]4CC[C@]23C)O1 [RPDQ] ) reads 8300 ng·h/mL

---

# assay: Pharmacokinetic study of RPDQ in rats after intragastric and intravenous administration (UPLC-MS/MS of plasma)
# Type: in vivo, Wistar rats
# setup_conditions: both sexes, Wistar, rat, plasma, po; rats, 12 mg/kg intragastric; read-out: AUC(0–60)
reported_property: AUC(0-t) (ng·h/mL)
Report as a plain number; the unit ng·h/mL is understood.

AUC(0-t) in this record for CC(C)(O)[C@@H]1CC[C@@](C)([C@H]2CC[C@]3(C)[C@@H]2[C@H](O[C@@H]2O[C@H](CO)[C@@H](O)[C@H]2O)C[C@@H]2[C@@]4(C)CC[C@H](O)C(C)(C)[C@@H]4CC[C@]23C)O1 : 17100
